study.system: T1, human Tom70 (residues 108–608) (human, UniProt O94826 108-608)
T1 chain: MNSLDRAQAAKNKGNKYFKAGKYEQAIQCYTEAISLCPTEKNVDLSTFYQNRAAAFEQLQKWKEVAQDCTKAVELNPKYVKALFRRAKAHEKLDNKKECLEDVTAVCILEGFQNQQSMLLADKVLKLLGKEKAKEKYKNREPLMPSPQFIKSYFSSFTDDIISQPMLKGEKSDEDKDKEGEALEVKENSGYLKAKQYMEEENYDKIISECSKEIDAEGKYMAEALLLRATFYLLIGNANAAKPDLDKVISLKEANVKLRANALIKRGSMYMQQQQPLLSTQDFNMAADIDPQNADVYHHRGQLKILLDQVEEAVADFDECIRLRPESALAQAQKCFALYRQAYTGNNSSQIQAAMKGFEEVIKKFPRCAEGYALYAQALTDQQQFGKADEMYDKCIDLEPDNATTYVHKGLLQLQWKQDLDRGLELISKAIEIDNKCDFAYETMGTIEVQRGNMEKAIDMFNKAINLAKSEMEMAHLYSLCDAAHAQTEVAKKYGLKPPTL
procedure.text: ITC; run 1
Where no end group is shown, it is not given here.
value.kind: Kd (µM)
One number for each entry, in µM.

[ask] Which value of Kd has been reported for YDTSRMEEVD-OH [Hsp90_(EEVD) peptide] in the records?
[reply] 12.8
